Reference source: the RNAGym collection of RNA variant scans (doi:10.7554/elife.90254)

B1: LINE1-full (parent)
chain: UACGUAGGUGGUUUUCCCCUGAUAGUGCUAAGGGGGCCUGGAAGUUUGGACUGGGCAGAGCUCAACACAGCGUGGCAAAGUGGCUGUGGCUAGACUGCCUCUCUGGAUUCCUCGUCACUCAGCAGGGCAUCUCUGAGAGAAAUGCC

Variants of: B1
Protocol: self-cleavage, relative activity (ratio to wild type); higher = more cleavage; in vitro, sequencing; the parent is a self-cleaving ribozyme
Experimental Readout: self-cleavage

A57G U100A
0.3
G53U
1.25
G80U U87C
0.2
U39C U46C
1.56
A57U A138U
0.12
C38U U119C
1.47
A22G A69G
0.59
U29A C101U
1.71
U96G A141G
0
U1C A43C
0.37
A77U A117G
1.6
U39C U119A
1.08
U23C A140G
1.28
U20C C110A
0.41
G7C G40A
1.27
A65U U115C
0.26
A64G A77G
0.42
A94G A141G
0.25
U39A G88A
0.08
U20A G53A
1.01
U12C C90U
0.04
U87G U115C
0.03
